- method summary: Tryptophan fluorescent binding assay, 3POPC/1POPG vesicles
- condition parameters: 50 μM peptide, PBS pH 7.4
Assign labels as follows, please: Criterion met for Lipid Concentration-induced 50% Peptide Binding (L/P) 3POPC/1POPG Vesicle below 4 L/P; Criterion not met for Lipid Concentration-induced 50% Peptide Binding (L/P) 3POPC/1POPG Vesicle equal to or exceeding 4 L/P.

structure=CC(C)C[C@H](NC(=O)CN)C(=O)N[C@@H](CC(C)C)C(=O)N[C@@H](CCC(=O)O)C(=O)N[C@@H](CC(C)C)C(=O)N[C@@H](CC(C)C)C(=O)N[C@@H](CCC(=O)O)C(=O)N[C@@H](CC(C)C)C(=O)N[C@@H](CC(C)C)C(=O)N[C@@H](CC(C)C)C(=O)N[C@@H](CCCCN)C(=O)N[C@@H](C)C(=O)N[C@@H](C)C(=O)NCC(=O)N[C@@H](Cc1c[nH]c2ccccc12)C(N)=O assigned_class="Criterion not met"
structure=CC(C)C[C@H](NC(=O)CN)C(=O)N[C@@H](CC(C)C)C(=O)N[C@@H](CCC(=O)O)C(=O)N[C@@H](CC(C)C)C(=O)N[C@@H](CC(C)C)C(=O)N[C@@H](CCC(=O)O)C(=O)N[C@@H](CC(C)C)C(=O)N[C@@H](CC(C)C)C(=O)N[C@@H](CC(C)C)C(=O)N[C@@H](CCC(=O)O)C(=O)N[C@@H](C)C(=O)N[C@@H](C)C(=O)NCC(=O)N[C@@H](Cc1c[nH]c2ccccc12)C(N)=O assigned_class="Criterion not met"
structure=CC(C)C[C@H](NC(=O)CN)C(=O)N[C@@H](CC(C)C)C(=O)N[C@@H](CCC(=O)O)C(=O)N[C@@H](CC(C)C)C(=O)N[C@@H](CC(C)C)C(=O)N[C@@H](Cc1c[nH]cn1)C(=O)N[C@@H](CC(C)C)C(=O)N[C@@H](CC(C)C)C(=O)N[C@@H](CC(C)C)C(=O)N[C@@H](CCC(=O)O)C(=O)N[C@@H](C)C(=O)N[C@@H](C)C(=O)NCC(=O)N[C@@H](Cc1c[nH]c2ccccc12)C(N)=O assigned_class="Criterion met"
structure=CC(C)C[C@H](NC(=O)CN)C(=O)N[C@@H](CC(C)C)C(=O)N[C@@H](CCC(=O)O)C(=O)N[C@@H](CC(C)C)C(=O)N[C@@H](CC(C)C)C(=O)N[C@@H](CCC(=O)O)C(=O)N[C@@H](CC(C)C)C(=O)N[C@@H](CC(C)C)C(=O)N[C@@H](CC(C)C)C(=O)N[C@@H](Cc1c[nH]cn1)C(=O)N[C@@H](C)C(=O)N[C@@H](C)C(=O)NCC(=O)N[C@@H](Cc1c[nH]c2ccccc12)C(N)=O assigned_class="Criterion met"
structure=CC(C)C[C@H](NC(=O)CN)C(=O)N[C@@H](CC(C)C)C(=O)N[C@@H](CCCCN)C(=O)N[C@@H](CC(C)C)C(=O)N[C@@H](CC(C)C)C(=O)N[C@@H](CCC(=O)O)C(=O)N[C@@H](CC(C)C)C(=O)N[C@@H](CC(C)C)C(=O)N[C@@H](CC(C)C)C(=O)N[C@@H](CCC(=O)O)C(=O)N[C@@H](C)C(=O)N[C@@H](C)C(=O)NCC(=O)N[C@@H](Cc1c[nH]c2ccccc12)C(N)=O assigned_class="Criterion met"
structure=CC(C)C[C@H](NC(=O)CN)C(=O)N[C@@H](CC(C)C)C(=O)N[C@@H](CC(=O)O)C(=O)N[C@@H](CC(C)C)C(=O)N[C@@H](CC(C)C)C(=O)N[C@@H](CCC(=O)O)C(=O)N[C@@H](CC(C)C)C(=O)N[C@@H](CC(C)C)C(=O)N[C@@H](CC(C)C)C(=O)N[C@@H](CCCCN)C(=O)N[C@@H](C)C(=O)N[C@@H](C)C(=O)NCC(=O)N[C@@H](Cc1c[nH]c2ccccc12)C(N)=O assigned_class="Criterion met"
